- Test system: Staphylococcus aureus
- assay method text: Antibacterial activity against Staphylococcus aureus after 18 hrs by microdilution assay
- Format: functional
I'd appreciate it if you could supply MIC values for the items below.
Give just the number in µM; leave the unit off.

q: Any idea what its MIC is? The compound is "COc1c(NCCNc2ccccn2)c(F)c(N)c2c(=O)c(C(=O)O)cn(C3CC3)c12"
a: 1

q: GET /values?readout=MIC&item= "CC1(C)COc2c(NCCNc3ccccn3)c(F)c(N)c3c(=O)c(C(=O)O)cn1c23"
a: 59

q: # input compound: "Nc1c(F)c(NCCNc2ccccn2)c2c3c1c(=O)c(C(=O)O)cn3C1(CCCC1)CO2" ; wanted: its MIC
a: 71

q: Data request, read-out MIC, for "COc1c(NCCNc2ccccn2)c(F)c(N)c2c(=O)c(C(=O)O)cn(C3CCCC3)c12"
a: 7

q: Report MIC for "COc1c(NCCNc2ccccn2)c(F)c(N)c2c(=O)c(C(=O)O)cn(C)c12" please.
a: 13

q: Given "COc1c(NCCNc2ccccn2)c(F)c(N)c2c(=O)c(C(=O)O)c[nH]c12" , state its recorded MIC.
a: 25

q: # lookup: MIC of "C[C@H]1COc2c(NCCNc3ccccn3)c(F)c(N)c3c(=O)c(C(=O)O)cn1c23"
a: 2

q: Quick check: MIC of "Nc1c(F)c(NCCNc2ccccn2)cc2c1c(=O)c(C(=O)O)cn2C1CC1" ?
a: 0.2

q: May I ask what MIC has been recorded for "C[C@@H]1COc2c(NCCNc3ccccn3)c(F)c(N)c3c(=O)c(C(=O)O)cn1c23" ?
a: 243

q: Item "CC(C)[C@H]1COc2c(NCCNc3ccccn3)c(F)c(N)c3c(=O)c(C(=O)O)cn1c23" has what recorded MIC?
a: 14
